Attribute: CC50 at 120 h
# TEST_NAME: Cytotoxicity against Swiss mouse peritoneal macrophages assessed as cell detachment, lysis and granulation measured after 5 days by microscopic analysis
# Type: cell-based, Peritoneal macrophage
# TEST_PARAMETERS: time 5 day

{"columns": ["SUBSTANCE_SMILES", "CC50 at 120 h"],
 "data": [
  ["Nc1ncnc2c1c(-c1ccc(F)c(Cl)c1)nn2[C@@H]1O[C@H](CO)[C@@H](O)[C@H]1O", "> 64 µM"]
]}

Quick one: CC50 at 120 h for Nc1ncnc2c1c(-c1ccc([N+](=O)[O-])cc1)nn2[C@@H]1O[C@H](CO)[C@@H](O)[C@H]1O ?
> 64 µM

Quick one: CC50 at 120 h for Nc1ncnc2c1c(Oc1ccccc1)nn2[C@@H]1O[C@H](CO)[C@@H](O)[C@H]1O ?
> 64 µM

Quick one: CC50 at 120 h for Nc1ncnc2c1c(N1CCCC1)nn2[C@@H]1O[C@H](CO)[C@@H](O)[C@H]1O ?
> 64 µM

Quick one: CC50 at 120 h for Nc1ncnc2c1c(C(F)(F)F)nn2[C@@H]1O[C@H](CO)[C@@H](O)[C@H]1O ?
> 64 µM

Quick one: CC50 at 120 h for C#Cc1nn([C@@H]2O[C@H](CO)[C@@H](O)[C@H]2O)c2ncnc(N)c12 ?
≥ 8 µM
